# test-summary: inhibitors of mutant huntingtin aggregation, primary screen, imaging, exon1htt(103Q)mCFP cells, high-content imaging (AID 483);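 further: compound exposure lasted 3 days before fixation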;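 on nuclei count: percent of the per-plate median nuclei count of sample wells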
# condition-info: exon1htt(103Q)mCFP cell line, aggregate imaging, at 2 µM; measured here: cell count, toxicity
parameter-measured: nuclei count (%)
Give just the numeric value; % need not be written.

Query block: Tell me the measured nuclei count of Cn1c(NC(=O)c2cccc(Cn3cc(Cl)cn3)c2)nc2ccccc21 , please.
Result block: 104

Query block: Tell me the measured nuclei count of CCOC(=O)Cc1csc(NC(=O)CSc2nnc(C)n2C)n1 , please.
Result block: 101

Query block: Tell me the measured nuclei count of O=C(NCC(c1cccnc1)N1CCOCC1)c1cccs1 (stereo not given) , please.
Result block: 97.5

Query block: Tell me the measured nuclei count of Cc1ccc2nc(NC(=O)CN(C)S(=O)(=O)c3cccc4nsnc34)sc2c1 , please.
Result block: 113

Query block: Tell me the measured nuclei count of CC(=O)c1cccc(-n2nnnc2SCC(=O)N2CCCC2)c1 , please.
Result block: 119

Query block: Tell me the measured nuclei count of O=C(CSCc1cccs1)N1CCCC1 , please.
Result block: 95

Query block: Tell me the measured nuclei count of O=C(CSc1ncnc2ccccc12)NCCCO , please.
Result block: 104

Query block: Tell me the measured nuclei count of CC(=O)c1cnc2cc(-c3ccccc3)nn2c1C , please.
Result block: 84.2

Query block: Tell me the measured nuclei count of Cc1ccc(-c2nc3ncccc3o2)cc1NC(=O)c1ccco1 , please.
Result block: 102

Query block: Tell me the measured nuclei count of COc1ccc(NC(=O)N2CCN(c3nc(-c4cccc(OC)c4)cs3)CC2)cc1 , please.
Result block: 93.9

Query block: Tell me the measured nuclei count of Clc1cccc(-c2nnc(-c3ccccc3)o2)c1 , please.
Result block: 110

Query block: Tell me the measured nuclei count of O=C(c1ccco1)N1CCN(CC2CC3C=CC2C3)CC1 (stereo not given) , please.
Result block: 7.7

Query block: Tell me the measured nuclei count of N#Cc1c(N)nc2c(c1-c1ccncc1)CCCCC2 , please.
Result block: 106

Query block: Tell me the measured nuclei count of Cc1csc2nc(CNC(=O)c3ccco3)cn12 , please.
Result block: 90.4

Query block: Tell me the measured nuclei count of O=C(c1ccco1)N1CCN(c2ccc(Cl)cc2)CC1 , please.
Result block: 82.3

Query block: Tell me the measured nuclei count of Cc1cc(Cl)c(S(=O)(=O)Nc2ccc3c(c2)OCCO3)cc1OCC(N)=O , please.
Result block: 106

Query block: Tell me the measured nuclei count of Nc1cc(CN2C(=O)c3ccccc3C2=O)cc(Cl)c1O , please.
Result block: 100

Query block: Tell me the measured nuclei count of Cc1ccc(OCC(O)CN2C(=O)NC(C)(C)C2=O)cc1C (stereo not given) , please.
Result block: 107

Query block: Tell me the measured nuclei count of Cc1ccc(S(=O)(=O)N2CCN(S(=O)(=O)N(C)C)CC2)cc1 , please.
Result block: 101

Query block: Tell me the measured nuclei count of Fc1ccccc1Cn1nnc2c(-n3ccnc3)ncnc21 , please.
Result block: 103

Query block: Tell me the measured nuclei count of Cc1nc2ccccc2c2oc(C(=O)NCCCN3CCCC3=O)cc12 , please.
Result block: 76

Query block: Tell me the measured nuclei count of CC1Cc2nc(SCC(=O)Nc3nccs3)n(C)c(=O)c2S1 (stereo not given) , please.
Result block: 109

Query block: Tell me the measured nuclei count of O=C(CSc1nc2ccsc2c(=O)n1NC(=O)c1ccccc1)Nc1nccs1 , please.
Result block: 98.2

Query block: Tell me the measured nuclei count of Cc1cc(CN2CCN(CCC#N)CC2)c(O)c(C2(C)CCCCC2)c1 , please.
Result block: 98.4

Query block: Tell me the measured nuclei count of CCN(CC)CCN1C(=O)Cn2c(C)c(C)c3cccc1c32 , please.
Result block: 93.7

---

# study-system: Voltage-gated potassium channel subunit beta-2 (Rattus norvegicus) (UniProt P62483)
# Sequence (P62483 whole entry, looked up): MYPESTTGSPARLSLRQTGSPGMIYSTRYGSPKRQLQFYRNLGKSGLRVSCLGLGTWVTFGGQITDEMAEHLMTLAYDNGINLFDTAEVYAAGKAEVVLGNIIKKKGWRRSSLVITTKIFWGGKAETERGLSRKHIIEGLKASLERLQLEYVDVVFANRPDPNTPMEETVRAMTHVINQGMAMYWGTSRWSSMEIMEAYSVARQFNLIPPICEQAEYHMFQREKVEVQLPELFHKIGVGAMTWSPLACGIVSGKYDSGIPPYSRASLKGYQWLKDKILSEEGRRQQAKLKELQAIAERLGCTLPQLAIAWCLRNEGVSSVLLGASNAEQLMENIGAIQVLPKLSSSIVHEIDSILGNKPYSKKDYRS
# test-summary: KvBeta positive modulators, primary screen, biochemical, NADPH fluorescence (AID 623);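 further: fluorescence intensity change per second fitted from 20 to 320 s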
# condition-info: Recombinant KvBeta, NADPH fluorescence decrease slope, 10 min; at 10 µM; stronger effect = lower value
parameter-measured: NADPH fluorescence slope
Hey, just send me the number, nothing else.

Query block: Tell me the measured NADPH fluorescence slope of O=C(Cn1cnc2c(nnn2Cc2ccccc2)c1=O)c1ccc(Cl)cc1 , please.
Result block: -4.2e-06

Query block: Tell me the measured NADPH fluorescence slope of Cn1c(=O)c2c(nc(Br)n2Cc2ccc3ccccc3c2)n(C)c1=O , please.
Result block: -5.2e-05

Query block: Tell me the measured NADPH fluorescence slope of CSc1nc(C)c2c(c1C#N)CCCC2 , please.
Result block: -3.8e-05

Query block: Tell me the measured NADPH fluorescence slope of O=C(Nc1ccc2nc(-c3cccs3)[nH]c2c1)c1ccco1 , please.
Result block: -7.7e-05

Query block: Tell me the measured NADPH fluorescence slope of COC(=O)c1c(N)sc(C(=O)N2CCOCC2)c1C , please.
Result block: -5.8e-06

Query block: Tell me the measured NADPH fluorescence slope of O=C(NCc1ccco1)C(c1ccco1)N(C(=O)Cn1nnc2ccccc21)c1ccc2c(c1)CCC2 (stereo unspecified) , please.
Result block: -6.5e-06

Query block: Tell me the measured NADPH fluorescence slope of CCOC(=O)C(C)(C)Sc1nc2c(cnn2-c2ccc(C)cc2)c(=O)[nH]1 , please.
Result block: -2.5e-05

Query block: Tell me the measured NADPH fluorescence slope of COc1ccc(CC(=O)NCc2nnc(SCC(=O)Nc3nccs3)n2-c2ccccc2)cc1 , please.
Result block: -2.9e-05

Query block: Tell me the measured NADPH fluorescence slope of O=C(c1csc2ccccc12)n1cccn1 , please.
Result block: -3.1e-05

Query block: Tell me the measured NADPH fluorescence slope of Brc1ccc(-c2cnnc(N3CCCC3)n2)cc1 , please.
Result block: -1.2e-05

Query block: Tell me the measured NADPH fluorescence slope of Nc1nc2n(n1)C(c1cccs1)CC(c1ccc(F)cc1)N2 (stereo unspecified) , please.
Result block: -0.000111

---

# test-summary: inhibitors of mutant huntingtin aggregation, primary screen, imaging, exon1htt(103Q)mCFP cells, high-content imaging (AID 483);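 further: compound exposure lasted 3 days before fixation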
# condition-info: exon1htt(103Q)mCFP cell line, aggregate imaging, at 2 µM; stronger effect = higher value
Label No if inhibition of aggregation falls below 10%; label Yes in every other case.

Query block: Reported inhibition of aggregation at or above 10%? Cn1c(=O)c2c(nc(Br)n2CCSc2nnnn2-c2ccccc2)n(C)c1=O
Result block: Yes

Query block: Reported inhibition of aggregation at or above 10%? CN(C(=O)C1CCCO1)c1nnc(-c2ccncc2)s1 (configuration not stated)
Result block: No

Query block: Reported inhibition of aggregation at or above 10%? O=C1CC(Cc2ccccc2)C(=O)N1CCCn1ccnc1 (configuration not stated)
Result block: Yes

Query block: Reported inhibition of aggregation at or above 10%? COc1ccc(C)cc1NC(=O)COCC(=O)O
Result block: No

Query block: Reported inhibition of aggregation at or above 10%? O=C(CCn1c(=O)sc2ccccc21)Nc1nccs1
Result block: No

Query block: Reported inhibition of aggregation at or above 10%? CC(C)CN(CC(C)C)C(=O)CS(=O)(=O)Cc1ccccc1
Result block: No

Query block: Reported inhibition of aggregation at or above 10%? CCc1ccccc1OCCCCCNCCO
Result block: Yes

Query block: Reported inhibition of aggregation at or above 10%? CCOC(=O)Cc1csc(NC(=O)CSc2nnc(C)n2C)n1
Result block: Yes

Query block: Reported inhibition of aggregation at or above 10%? O=C(Nc1ccc2nc(-c3cccs3)[nH]c2c1)c1ccco1
Result block: Yes

Query block: Reported inhibition of aggregation at or above 10%? O=C1c2ccccc2S(=O)(=O)N1CC(O)Cn1c2ccccc2c2ccccc21 (configuration not stated)
Result block: No

Query block: Reported inhibition of aggregation at or above 10%? CC(NC(=O)c1noc2c1CCCCC2)c1ccccc1 (configuration not stated)
Result block: No

Query block: Reported inhibition of aggregation at or above 10%? CCOC(=O)C1=C(c2ccccc2)NC(=O)NC1c1ccc(N(C)C)cc1 (configuration not stated)
Result block: Yes

---

I'd be grateful if you could share measured inhibition for these entries.
# study-system: Dual specificity protein phosphatase 6 (Homo sapiens) (UniProt Q16828)
# Sequence (Q16828 whole entry, looked up): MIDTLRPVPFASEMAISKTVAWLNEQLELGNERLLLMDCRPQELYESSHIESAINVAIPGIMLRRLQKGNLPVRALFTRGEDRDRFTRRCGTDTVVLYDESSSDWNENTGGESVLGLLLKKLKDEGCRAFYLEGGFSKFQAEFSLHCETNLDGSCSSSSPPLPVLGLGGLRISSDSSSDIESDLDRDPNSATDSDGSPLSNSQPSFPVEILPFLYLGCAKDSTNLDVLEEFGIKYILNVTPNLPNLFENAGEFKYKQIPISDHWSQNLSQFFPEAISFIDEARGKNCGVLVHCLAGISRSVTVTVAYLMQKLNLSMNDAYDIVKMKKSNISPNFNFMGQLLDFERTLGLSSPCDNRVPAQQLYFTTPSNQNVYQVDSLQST
# test-summary: DUSP6 inhibitors restoring Erk phosphorylation by chemical complementation, primary imaging in DUSP6-transfected HeLa (AID 609);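 further: phospho-Erk level distribution per well compared with pooled transfected vehicle control wells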
# condition-info: HeLa MKP-3 transfected, phospho-Erk imaging KS statistic; at 10 µM; stronger effect = higher value; cells stimulated with TPA for 15 min
Give just the numeric value; % need not be written.

Query block: Tell me the measured inhibition of Cn1c(Cn2cnc(Cl)c2Cl)nc2ccccc21 , please.
Result block: 12.8

Query block: Tell me the measured inhibition of CCOC(=O)CC(=O)CSc1nnc2sc3ccccc3n12 , please.
Result block: 3.97

Query block: Tell me the measured inhibition of O=C1C=C(O)CC(c2ccc(Cl)c(Cl)c2)C1 (configuration not stated) , please.
Result block: 14.7

Query block: Tell me the measured inhibition of O=C(Nc1ccc(N2CCN(C(=O)c3ccccc3)CC2)c(Cl)c1)c1ccc(Br)o1 , please.
Result block: -7.28

Query block: Tell me the measured inhibition of CCCc1nc2n[nH]c(N)c2c2c1CCCC2 , please.
Result block: -2.09

Query block: Tell me the measured inhibition of COc1cccc(C(=O)c2sc(NC(C)C)nc2N)c1 , please.
Result block: -3.95

Query block: Tell me the measured inhibition of CCCC(C)n1[nH]c(=O)cc1N (configuration not stated) , please.
Result block: 30.7

Query block: Tell me the measured inhibition of COc1ccccc1C1CC(c2ccc(Cl)cc2)Nc2nc(N)nn21 (configuration not stated) , please.
Result block: 11.9

Query block: Tell me the measured inhibition of c1ccc2c(c1)CCN(c1ncnc3c1[nH]c1ccccc13)C2 , please.
Result block: -4.59

Query block: Tell me the measured inhibition of N#Cc1c(N2CCCCC2)nc(N2CCCCC2)c2c1CCN(Cc1ccccc1)C2 , please.
Result block: -4.59

Query block: Tell me the measured inhibition of O=C(CC1SC2=NCCN2C1=O)Nc1ccccc1 (configuration not stated) , please.
Result block: 18.6

Query block: Tell me the measured inhibition of CC(C)=CCC(C)(C)CNC(=O)NC1CCCCC1 , please.
Result block: -0.584
